Entry source: ChEMBL document CHEMBL1961873

- target system: Tyrosine-protein kinase JAK2 (Homo sapiens) (UniProt O60674);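 note: mean JAK2 inhibition from the GSK PKIS screen, compounds tested at 1 µM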
- Sequence (O60674 whole entry): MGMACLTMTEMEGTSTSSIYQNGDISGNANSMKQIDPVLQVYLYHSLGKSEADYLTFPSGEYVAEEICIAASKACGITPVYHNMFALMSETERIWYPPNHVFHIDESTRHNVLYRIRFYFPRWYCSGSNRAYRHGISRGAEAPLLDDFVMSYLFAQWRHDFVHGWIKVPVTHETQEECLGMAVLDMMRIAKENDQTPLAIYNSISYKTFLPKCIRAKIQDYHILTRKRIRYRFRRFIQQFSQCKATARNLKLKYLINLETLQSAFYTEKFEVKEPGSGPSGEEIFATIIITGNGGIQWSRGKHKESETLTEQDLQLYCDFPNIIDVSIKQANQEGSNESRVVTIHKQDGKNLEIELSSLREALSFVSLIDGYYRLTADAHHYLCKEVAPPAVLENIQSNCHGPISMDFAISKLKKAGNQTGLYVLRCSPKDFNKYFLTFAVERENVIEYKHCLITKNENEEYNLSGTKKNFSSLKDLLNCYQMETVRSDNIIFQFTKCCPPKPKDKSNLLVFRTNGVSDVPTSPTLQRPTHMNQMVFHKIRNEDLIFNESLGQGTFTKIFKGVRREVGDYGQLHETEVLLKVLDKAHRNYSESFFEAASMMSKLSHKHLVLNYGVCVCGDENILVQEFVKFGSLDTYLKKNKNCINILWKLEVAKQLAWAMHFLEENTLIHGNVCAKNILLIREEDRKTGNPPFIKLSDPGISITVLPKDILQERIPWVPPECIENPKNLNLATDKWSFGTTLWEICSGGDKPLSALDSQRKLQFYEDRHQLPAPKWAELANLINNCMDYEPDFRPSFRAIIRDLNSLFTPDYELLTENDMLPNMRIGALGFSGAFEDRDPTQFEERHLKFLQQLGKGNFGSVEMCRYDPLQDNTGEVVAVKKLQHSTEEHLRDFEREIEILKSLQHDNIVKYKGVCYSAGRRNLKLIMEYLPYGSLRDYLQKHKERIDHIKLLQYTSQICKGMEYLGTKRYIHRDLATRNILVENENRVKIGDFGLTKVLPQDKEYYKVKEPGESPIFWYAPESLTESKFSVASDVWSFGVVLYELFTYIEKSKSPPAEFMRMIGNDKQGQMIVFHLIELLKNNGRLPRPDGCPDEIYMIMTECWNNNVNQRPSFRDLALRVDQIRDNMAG
- setup conditions: at 1 µM
measured attribute: inhibition (%)
One number for each entry, in %.

In [3]: df
Out[3]:
                                   compound  measured_attribute  unit_tag  reported_result
0  N#Cc1ccc(Oc2nccc(-c3c(-c4ccc(F)cc4)ncn3C3CCNCC3)n2)cc1          inhibition         %             0.75

// each compound listed below needs its inhibition
1. COc1cc(Nc2ncc3c(C)nc(-c4cccc(C(F)(F)F)c4)n3n2)cc(OC)c1OC
2. c1ccc(Oc2ccc(Nc3ncc(-c4ccccc4)o3)cc2)cc1
3. O=C(Nc1n[nH]c2cc(-c3ccccc3)ccc12)C1CC1
4. Cc1ccc(NC(=O)c2ccoc2)cc1-c1ccc(C(=O)NCC2CC2)cc1

1. 11.1
2. 1.65
3. 0.77
4. -1.25

// each compound listed below needs its inhibition
1. COc1cccc(/C=N/Nc2ncnc3c2cnn3-c2cccc(OC)c2)c1
2. CCc1ccc(Oc2nccc(-c3c(-c4ccc(F)cc4)ncn3C3CCNCC3)n2)cc1
3. COc1cc2ncn(-c3cc(OCc4ccccc4C(F)(F)F)c(C(C)=O)s3)c2cc1OC

5.22
2.94
-0.01

// each compound listed below needs its inhibition
1. Fc1ccc(-c2ncn(C3CCNCC3)c2-c2ccnc(Oc3ccc4c(c3)OCO4)n2)cc1
2. O=C(Nc1ccc(Oc2ccc3[nH]c(NC(=O)c4ccccc4)nc3c2)cc1)Nc1cc(C(F)(F)F)ccc1F

1. 1.47
2. 4.06
